Hello, the source for this data is patent US7638515B2, in case you need it.

# System: secretion of cytokine IL-8 in the human monocyte cell line THP-1
# method-description: Inhibition of LPS-triggered secretion of cytokine IL-8 in THP-1 cells (ELISA)
# Assay type: cell-based
# experimental-context: THP-1, supernatant ELISA, read-out: IC50(IL8)
# Protocol: The concentration of the cytokines was determined in the supernatant by means of commercially available ELISA kits.
measured-endpoint: IC50 (µM)
Return type: number; implicit unit µM.

query: Return the recorded IC50 value; entry: CC1(C)CC(O)(C(F)(F)F)C(Nc2cccc3[nH]ncc23)c2cc(F)cc(O)c21 (stereo not shown)
result: 0.019

====

# target-under-test: progesterone receptor (PR) (Homo sapiens)
# Sequence (P06401 whole entry, species assumed): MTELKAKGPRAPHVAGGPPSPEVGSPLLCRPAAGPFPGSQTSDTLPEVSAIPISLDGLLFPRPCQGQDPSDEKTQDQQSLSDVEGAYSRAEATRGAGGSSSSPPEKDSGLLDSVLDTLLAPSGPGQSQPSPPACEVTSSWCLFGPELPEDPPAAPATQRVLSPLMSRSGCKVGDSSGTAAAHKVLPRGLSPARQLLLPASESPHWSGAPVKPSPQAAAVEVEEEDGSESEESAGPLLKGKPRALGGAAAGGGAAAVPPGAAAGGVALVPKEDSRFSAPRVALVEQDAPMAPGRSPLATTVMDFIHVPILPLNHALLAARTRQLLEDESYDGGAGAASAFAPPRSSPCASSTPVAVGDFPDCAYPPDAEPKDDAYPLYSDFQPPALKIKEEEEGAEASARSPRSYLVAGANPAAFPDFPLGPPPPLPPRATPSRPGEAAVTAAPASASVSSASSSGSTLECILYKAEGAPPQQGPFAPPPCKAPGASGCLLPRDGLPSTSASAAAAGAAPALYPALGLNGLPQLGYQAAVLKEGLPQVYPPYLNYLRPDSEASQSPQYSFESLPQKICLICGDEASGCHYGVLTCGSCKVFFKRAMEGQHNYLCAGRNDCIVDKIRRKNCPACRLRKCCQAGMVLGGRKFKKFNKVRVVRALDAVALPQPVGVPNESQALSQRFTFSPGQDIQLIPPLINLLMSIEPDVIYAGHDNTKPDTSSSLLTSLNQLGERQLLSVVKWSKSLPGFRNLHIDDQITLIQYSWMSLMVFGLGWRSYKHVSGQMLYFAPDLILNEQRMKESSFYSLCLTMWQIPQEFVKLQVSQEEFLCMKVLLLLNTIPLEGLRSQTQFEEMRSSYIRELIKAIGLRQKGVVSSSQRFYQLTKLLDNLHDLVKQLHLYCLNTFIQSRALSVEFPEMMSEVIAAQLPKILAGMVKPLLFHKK
# method-description: Binding to the progesterone receptor, recombinantly produced receptor
measured-endpoint: pIC50
Scale explanation: pIC50 corresponds to minus log10 of a concentration expressed in moles per litre.

query: Return the recorded pIC50 value; entry: CC1(C)CC(O)(C(F)(F)F)C(Nc2cccc3[nH]ncc23)c2cc(F)cc(O)c21 (stereo not shown)
result: 6.34
